Cited source: PubChem BioAssay AID1963830

System: 922993-354-T-J3-PDC complex spheroid viability;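 note: spheroids exposed to the agents for one week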
Test: Anticancer human tumor 922993-354-T-J3-PDC patient-derived endometrial carcinoma cell line growth inhibition [POLQ]
Conditions: second compound 0.316 µM; first compound 10 µM; hits give low values
Just a reminder that ties go to criterion not met: only viability, T/C strictly below 80% counts as criterion met.

The following compounds have reported results that may help.
CCc1cc2c(N3CCc4c(cc(Cn5ccnc5)cc4-c4cn(C)nc4C(F)(F)F)C3=O)cc(C)nc2c(OC)n1 + Cc1cccc(N(C)C(=O)C2C(O)CCN2c2nc(C)cc(C(F)(F)F)c2C#N)c1	criterion not met
COc1cc2cc(C(=O)CCC(=O)O)sc2cc1OC + COC1C(OC(N)=O)C(O)C(Oc2ccc3c(O)c(NC(=O)c4ccc(O)c(CC=C(C)C)c4)c(=O)oc3c2C)OC1(C)C	criterion met
CC1COCCN1c1cc(-c2ccnn2C)c2ccnc(-c3ccn[nH]3)c2n1 (stereo not given) + Nc1ccc(C#CCN(C(=O)Cc2ncc(C(F)(F)F)cc2C(F)(F)F)c2ccc(F)cc2)nn1	criterion met
COc1cccc2c1C(=O)c1c(O)c3c(c(O)c1C2=O)CC(O)(C(=O)CO)CC3OC1CC(N)C(O)C(C)O1 (stereo not given) + COC1C(OC(N)=O)C(O)C(Oc2ccc3c(O)c(NC(=O)c4ccc(O)c(CC=C(C)C)c4)c(=O)oc3c2C)OC1(C)C	criterion met

Let's switch to this compound now.
Ask: Please determine if CC(C)n1c(=O)n(C)c2cnc3cc(F)c(-c4ccc(OCCCN5CCCCC5)nc4)cc3c21 + Cc1cccc(N(C)C(=O)C2C(O)CCN2c2nc(C)cc(C(F)(F)F)c2C#N)c1 is below 80% in terms of viability, T/C.
Result: criterion met
